Quick list: IC50 per entry.
- measuredOn: Prothrombin (Homo sapiens)

[
  {
    "structureSmilesString": "C[C@@H]1OC2=C(C(=O)C(=N)c3c(O)c(O)cc(C=O)c32)C1(C)C",
    "measurementLabel": "IC50",
    "result": "> 50 µM"
  },
  {
    "structureSmilesString": "Cc1cc(O)cc2c1C1=C(C(=O)C2=O)C(C)(C)[C@H](C)O1",
    "measurementLabel": "IC50",
    "result": "> 50 µM"
  }
]

Now examine the next entry.
Challenge: Given Cc1cc(O)c2c3c(c(O)c4c(c13)O[C@@H](C)C4(C)C)NC2=O , report its IC50 on Prothrombin (Homo sapiens).
Response given: > 50 µM

* * *

In this section we review reported IC50 values for a set of compounds.
- protocolDetails: Inhibition of porcine cholesterol esterase
- Parameters: species or system Sus scrofa

Take a look at these entries with their results.
[
  {
    "structureSmilesString": "Cc1cc(O)c2c3c(c(O)c4c(c13)O[C@@H](C)C4(C)C)NC2=O",
    "IC50": "> 50 µM"
  },
  {
    "structureSmilesString": "C[C@@H]1OC2=C(C(=O)C(=N)c3c(O)c(O)cc(C=O)c32)C1(C)C",
    "IC50": "> 50 µM"
  }
]

Switching to the query record.
Challenge: For the compound Cc1cc(O)cc2c1C1=C(C(=O)C2=O)C(C)(C)[C@H](C)O1 , report IC50.
Response given: > 50 µM

* * *

Entries annotated with measured pIC50
- measuredOn: Acetylcholinesterase (Electrophorus electricus)
- Sequence (O42275 whole entry): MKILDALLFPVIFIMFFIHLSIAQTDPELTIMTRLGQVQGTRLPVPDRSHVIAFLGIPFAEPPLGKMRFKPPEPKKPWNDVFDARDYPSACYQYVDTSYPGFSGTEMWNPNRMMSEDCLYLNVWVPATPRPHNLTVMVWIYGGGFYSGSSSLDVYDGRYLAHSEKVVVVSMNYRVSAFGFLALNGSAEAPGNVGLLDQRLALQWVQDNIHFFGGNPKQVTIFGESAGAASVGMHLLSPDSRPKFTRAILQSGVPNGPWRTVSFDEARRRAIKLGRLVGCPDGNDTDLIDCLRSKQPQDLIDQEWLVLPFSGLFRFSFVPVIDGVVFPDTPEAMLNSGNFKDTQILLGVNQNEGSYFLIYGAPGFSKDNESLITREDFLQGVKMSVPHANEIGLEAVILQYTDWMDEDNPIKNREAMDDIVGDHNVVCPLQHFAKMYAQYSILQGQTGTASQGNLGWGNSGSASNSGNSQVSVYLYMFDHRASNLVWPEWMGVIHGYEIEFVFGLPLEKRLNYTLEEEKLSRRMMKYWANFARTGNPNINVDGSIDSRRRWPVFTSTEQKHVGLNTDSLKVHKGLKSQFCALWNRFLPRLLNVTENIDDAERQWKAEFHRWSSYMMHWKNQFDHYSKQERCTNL
- protocolDetails: Inhibition of electric eel AChE
pIC50: −log10 of the molar value.

Examples from the recorded data:
[
  {
    "structureSmilesString": "Cc1cc(O)cc2c1C1=C(C(=O)C2=O)C(C)(C)[C@H](C)O1",
    "pIC50": "< 4.30"
  },
  {
    "structureSmilesString": "Cc1cc(O)c2c3c(c(O)c4c(c13)O[C@@H](C)C4(C)C)NC2=O",
    "pIC50": "< 4.30"
  }
]

Challenge: State pIC50 on Acetylcholinesterase (Electrophorus electricus). Entry: C[C@@H]1OC2=C(C(=O)C(=N)c3c(O)c(O)cc(C=O)c32)C1(C)C
Response given: < 4.30

* * *

Entries below carry reported IC50 on UniProt P00784.
Sequence (P00784 whole entry): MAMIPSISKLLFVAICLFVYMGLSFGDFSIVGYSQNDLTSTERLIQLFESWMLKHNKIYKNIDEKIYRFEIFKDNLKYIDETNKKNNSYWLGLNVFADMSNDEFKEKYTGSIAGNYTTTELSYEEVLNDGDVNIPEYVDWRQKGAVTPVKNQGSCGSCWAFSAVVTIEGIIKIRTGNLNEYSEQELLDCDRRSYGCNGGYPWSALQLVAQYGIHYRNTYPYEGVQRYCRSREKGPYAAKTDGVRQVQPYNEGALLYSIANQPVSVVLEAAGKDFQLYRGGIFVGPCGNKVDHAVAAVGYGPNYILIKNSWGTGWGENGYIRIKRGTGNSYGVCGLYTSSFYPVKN

Some molecules with known IC50 results, for comparison:
[
  {
    "structureSmilesString": "C[C@@H]1OC2=C(C(=O)C(=N)c3c(O)c(O)cc(C=O)c32)C1(C)C",
    "result": "> 50 µM"
  },
  {
    "structureSmilesString": "Cc1cc(O)c2c3c(c(O)c4c(c13)O[C@@H](C)C4(C)C)NC2=O",
    "result": "> 50 µM"
  }
]

Moving on to another molecule below.
Challenge: Report measured IC50 on UniProt P00784; entry: Cc1cc(O)cc2c1C1=C(C(=O)C2=O)C(C)(C)[C@H](C)O1
Response given: > 50 µM

* * *

- measuredOn: Neutrophil elastase (Homo sapiens)
- Sequence (P08246 whole entry): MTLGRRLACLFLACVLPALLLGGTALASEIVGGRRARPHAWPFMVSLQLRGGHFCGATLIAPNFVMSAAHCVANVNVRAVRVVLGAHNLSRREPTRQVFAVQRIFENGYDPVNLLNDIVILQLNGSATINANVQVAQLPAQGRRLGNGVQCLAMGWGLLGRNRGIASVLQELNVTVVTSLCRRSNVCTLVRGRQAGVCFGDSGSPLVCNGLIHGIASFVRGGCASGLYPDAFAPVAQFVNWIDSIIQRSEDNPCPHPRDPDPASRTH
- protocolDetails: Inhibition of human leukocyte elastase using MeOSuc-Ala-Ala-Pro-Val-para-nitroanilide chromogenic substrate after 10 mins spectrophotometrically
measurementLabel: IC50

Here's what some known entries look like.
[
  {
    "structureSmilesString": "C[C@@H]1OC2=C(C(=O)C(=N)c3c(O)c(O)cc(C=O)c32)C1(C)C",
    "IC50": "3.01 µM"
  },
  {
    "structureSmilesString": "Cc1cc(O)cc2c1C1=C(C(=O)C2=O)C(C)(C)[C@H](C)O1",
    "IC50": "> 20 µM"
  }
]

Challenge: Look up IC50 of Cc1cc(O)c2c3c(c(O)c4c(c13)O[C@@H](C)C4(C)C)NC2=O and report it.
Response given: 9.28 µM
